Task for the reader: assign each of the following binders its reported signal vs NO COMP=100.
- target or system: T1, human CD115 extracellular domain (Sino Biological 10161-H08H) (human, UniProt P07333 20-517)
- T1 construct: extracellular domain; bought recombinant protein; also called huCD115; hu-CD115
- experiment description: competition ELISA, competitor TMR 20A;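 also: epitope binning by ELISA, anti-huCD115 hybridoma supernatant antibodies tested for binding to huCD115 with the competitor antibody present, loss of binding placing them in the competitor's bin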;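 also: low signal means same epitope bin as the mouse competitor antibody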
Record the value in %, omitting the unit from your answer.

Q: Please supply the value of reported signal vs NO COMP=100 for the item CCK-417A (antibody, V domains shown, AlivaMab chimeric IgG, human kappa LC) VH: QVTLRESGPALVKPTQTLTLTCTFSGFSLSTSGMCVSWIRQPPGKALECLALIDWDDDKYYSTSLKTRLTISKDTSKNQVVLTMTNMDPVDTATYYCARTQLGIADYWGQGTLVTVSS VL: AIRMTQSPSSFSASTGDRVTITCRASQGISSYLAWYQQKPGKAPKLLIYAASTLQSGVPSRFSGSGSGTDFTLTISCLQSEDFATYYCQQYYSYPFTFGPGTKVDIK
A: 110

Q: Name the recorded signal vs NO COMP=100 of the binder listed here: CCK-464A (antibody, V domains shown, AlivaMab chimeric IgG, human kappa LC) VH: EVQLVESGGGLVKPGGSLRLSCAASGFTFSSYNMNWVRQAPGKGLEWVSSISSSSTYIYYADSLKGRFTISRDNAMNSLYLQMSSLRAEDTAVYYCARDSGTYPYYYFGMDVWGQGTTVTVSS VL: DIQLTQSPSFLSASVGDRVTITCRASQGISSYLAWYQQKPGKAPKLLIYAASTLQSGVPSRFSGSGSGTEFTLTISSLQPEDFATYYCQQLNTYPRTFGQGTKVEIK
A: 87

Q: Return signal vs NO COMP=100 (reported value) for this binder: CCK-541A (antibody, V domains shown, AlivaMab chimeric IgG, human kappa LC) VH: QVQLQESGPGLVKPSETLSLTCTVSGASISTYFWSWLRQPPGKGLEWIGYIFYSGSINYNPSLKSRVTISVDTSKNQFSLELSSVTAADTAVYYCARDRTFYGMDVWGQGTTVTVSS VL: EIVLTQSPGTLSLPPGERATLSCRASQNVSSTYLAWYHQKPGQAPRLLIYGASSRATGIPDRFSGSGSGTDFTLTISRLEPEDFAVYYCQQYGSSPRTFGQGTKVEIK
A: 34
